PROTOCOL_DETAILS: The drug is tested on the gut metagenome community of MV13 with ENA study accession number: PRJEB31790 and ENA sample accession number: SAMEA5537494 for biotransformation. The drug concentrations were measured over 9 timepoints collected between 0 and 24 hours of incubation by liquid-chromatography-coupled mass spectrometry (LC–MS)
Assay type: ADME
Parameters: dose 2 uM, timepoint 0, 1, 2, 4, 6, 8, 12, 18, 24 hours
MEASUREMENT_PARAMETERS: 2 µM
EXPERIMENTAL_READOUT: Bacterial Biotransformation

{"COMPOUND": "CC(=O)OCC(CCn1cnc2cnc(N)nc21)COC(C)=O [FAMCICLOVIR]", "ASSAY_RESULT": "Compound metabolized"}
{"COMPOUND": "C#C[C@]1(OC(C)=O)CC[C@H]2[C@@H]3CCC4=CC(=O)CC[C@@H]4[C@H]3CC[C@@]21C [NORETHINDRONE ACETATE]", "ASSAY_RESULT": "Compound metabolized"}
{"COMPOUND": "COc1ccc([C@@H]2Sc3ccccc3N(CCN(C)C)C(=O)[C@@H]2OC(C)=O)cc1 [DILTIAZEM]", "ASSAY_RESULT": "Compound NOT metabolized"}
{"COMPOUND": "C[C@@H]1C[C@H]2[C@@H]3CCC4=CC(=O)C=C[C@]4(C)[C@@]3(F)[C@@H](O)C[C@]2(C)[C@@]1(O)C(=O)CO [DEXAMETHASONE]", "ASSAY_RESULT": "Compound NOT metabolized"}

----------
PROTOCOL_DETAILS: The drug is tested on Collinsella intestinalis strain: DSM13280 for biotransformation. The drug concentrations were measured before and after a 12-h incubation by liquid-chromatography-coupled mass spectrometry (LC–MS)
MEASUREMENT_PARAMETERS: 2 µM
EXPERIMENTAL_READOUT: Bacterial Biotransformation

Example entries begin here.
{"COMPOUND": "CCCC(C)(COC(N)=O)COC(=O)NC(C)C (configuration not stated)", "Bacterial Biotransformation": "Compound NOT metabolized"}
{"COMPOUND": "CN1CCN(CC/C=C2/c3ccccc3Sc3ccc(S(=O)(=O)N(C)C)cc32)CC1", "Bacterial Biotransformation": "Compound NOT metabolized"}
{"COMPOUND": "CN1C(=O)CCS(=O)(=O)C1c1ccc(Cl)cc1 (configuration not stated)", "Bacterial Biotransformation": "Compound NOT metabolized"}
{"COMPOUND": "COc1ccc(C(CN(C)C)C2(O)CCCCC2)cc1 (configuration not stated)", "Bacterial Biotransformation": "Compound NOT metabolized"}
{"COMPOUND": "Br.CN1CCC[C@@H]1Cc1c[nH]c2ccc(CCS(=O)(=O)c3ccccc3)cc12 [ELETRIPTAN HYDROBROMIDE]", "Bacterial Biotransformation": "Compound NOT metabolized"}

Item: CCOC(=O)[C@H](CCc1ccccc1)N[C@@H](C)C(=O)N1CCC[C@H]1C(=O)O.O=C(O)/C=C\C(=O)O [ENALAPRIL MALEATE] | Bacterial Biotransformation: Compound NOT metabolized

Lookup result for COc1cc2nc(N3CCN(C(=O)C4COc5ccccc5O4)CC3)nc(N)c2cc1OC.CS(=O)(=O)O (configuration not stated) [DOXAZOSIN MESYLATE] ; measured Bacterial Biotransformation: Compound NOT metabolized

# Bacterial Biotransformation (compound: NC(=O)N1c2ccccc2CC(=O)c2ccccc21 [OXCARBAZEPINE] ) is Compound NOT metabolized

The recorded Bacterial Biotransformation for entry CC[C@@H](CO)NC(=O)[C@@H]1C=C2c3cccc4c3c(cn4C)C[C@H]2N(C)C1.O=C(O)/C=C\C(=O)O [METHYSERGIDE MALEATE] equals Compound NOT metabolized

Record summary for CC(=O)Oc1ccc(C(c2ccc(OC(C)=O)cc2)c2ccccn2)cc1 : reported Bacterial Biotransformation = Compound metabolized

Recorded result, CC#C[C@]1(O)CC[C@H]2[C@@H]3CCC4=CC(=O)CCC4=C3[C@@H](c3ccc(N(C)C)cc3)C[C@@]21C , Bacterial Biotransformation: Compound NOT metabolized

// CN1CCC(OC(c2ccccc2)c2ccccc2)CC1 : Bacterial Biotransformation value = Compound NOT metabolized

Measured Bacterial Biotransformation of COC(=O)C1=C(C)NC(C)=C(C(=O)OC(C)C)C1c1cccc2nonc12 (configuration not stated) : Compound NOT metabolized

# Bacterial Biotransformation (compound: Nc1ccc(/N=N/c2ccccc2)c(N)n1 ) is Compound metabolized

Lab book: Bacterial Biotransformation of COc1cc2nc(N3CCN(C(=O)C4CCCO4)CC3)nc(N)c2cc1OC (configuration not stated) noted as Compound NOT metabolized

Lookup result for CN1CCN(C(=O)O[C@H]2c3nccnc3C(=O)N2c2ccc(Cl)cn2)CC1 ; measured Bacterial Biotransformation: Compound NOT metabolized

Lab book: Bacterial Biotransformation of CN1CC(=O)N2[C@H](c3ccc4c(c3)OCO4)c3[nH]c4ccccc4c3C[C@@H]2C1=O noted as Compound NOT metabolized

Recorded result, CC(=O)CC(c1ccccc1)c1c(O)c2ccccc2oc1=O (configuration not stated) , Bacterial Biotransformation: Compound NOT metabolized

Item: C#C[C@]1(OC(C)=O)CC[C@H]2[C@@H]3CCC4=CC(=O)CC[C@@H]4[C@H]3CC[C@@]21C [NORETHINDRONE ACETATE] | Bacterial Biotransformation: Compound metabolized

Reported Bacterial Biotransformation of CN1CCC(=C2c3ccccc3CCc3cccnc32)CC1.O=C(O)/C=C\C(=O)O.O=C(O)/C=C\C(=O)O [AZATADINE MALEATE] : Compound NOT metabolized

Sample CC(=O)O[C@H]1C(=O)[C@@]2(C)[C@H]([C@H](OC(=O)c3ccccc3)[C@]3(O)C[C@H](OC(=O)[C@H](O)[C@@H](NC(=O)c4ccccc4)c4ccccc4)C(C)=C1C3(C)C)[C@]1(OC(C)=O)CO[C@@H]1C[C@@H]2O ; Bacterial Biotransformation observed: Compound NOT metabolized

Lab note: CN(C/C=C/C#CC(C)(C)C)Cc1cccc2ccccc12 gave Bacterial Biotransformation of Compound NOT metabolized

Given item CCOc1ccc(NC(C)=O)cc1 , the value recorded as its Bacterial Biotransformation is Compound NOT metabolized

Looking up CCCCC(=O)O[C@]1(C(=O)CO)[C@@H](C)C[C@H]2[C@@H]3CCC4=CC(=O)C=C[C@]4(C)[C@@]3(F)[C@@H](O)C[C@@]21C [BETAMETHASONE VALERATE] , I found its Bacterial Biotransformation recorded as Compound NOT metabolized

Entry CN(C)CCOC(c1ccc(Cl)cc1)c1ccccn1.O=C(O)/C=C\C(=O)O (configuration not stated) [CARBINOXAMINE MALEATE] — recorded Bacterial Biotransformation = Compound NOT metabolized

compound CCOC(=O)[C@H](CCc1ccccc1)N[C@H]1CCc2ccccc2N(CC(=O)O)C1=O , Bacterial Biotransformation observed: Compound NOT metabolized

Entry Cc1ccc(-c2cc(C(F)(F)F)nn2-c2ccc(S(N)(=O)=O)cc2)cc1 — recorded Bacterial Biotransformation = Compound NOT metabolized

Clc1ccc(Cn2c(CN3CCCC3)nc3ccccc32)cc1 has a reported Bacterial Biotransformation of Compound NOT metabolized

So for Cc1nc(-c2ccc(OCC(C)C)c(C#N)c2)sc1C(=O)O , the logged Bacterial Biotransformation turned out to be Compound NOT metabolized
